Cited source for all entries: patent US9266964

Listed next: entries and their corresponding % inhibition at 10 nM.
Target or test system: human plasma kallikrein (human, UniProt P03952 20-390; P03952 391-638)
Sequence (P03952 20-390, chain 1 of 2): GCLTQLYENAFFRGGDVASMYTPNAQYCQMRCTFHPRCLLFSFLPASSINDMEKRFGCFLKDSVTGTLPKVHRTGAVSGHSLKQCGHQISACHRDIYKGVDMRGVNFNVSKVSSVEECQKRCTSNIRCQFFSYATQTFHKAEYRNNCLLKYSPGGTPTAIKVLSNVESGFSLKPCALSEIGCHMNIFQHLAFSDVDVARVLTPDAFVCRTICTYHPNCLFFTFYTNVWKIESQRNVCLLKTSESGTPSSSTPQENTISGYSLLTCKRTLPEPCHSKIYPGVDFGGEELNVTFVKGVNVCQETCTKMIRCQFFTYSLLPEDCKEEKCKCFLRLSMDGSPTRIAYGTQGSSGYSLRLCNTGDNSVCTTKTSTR
Sequence (P03952 391-638, chain 2 of 2): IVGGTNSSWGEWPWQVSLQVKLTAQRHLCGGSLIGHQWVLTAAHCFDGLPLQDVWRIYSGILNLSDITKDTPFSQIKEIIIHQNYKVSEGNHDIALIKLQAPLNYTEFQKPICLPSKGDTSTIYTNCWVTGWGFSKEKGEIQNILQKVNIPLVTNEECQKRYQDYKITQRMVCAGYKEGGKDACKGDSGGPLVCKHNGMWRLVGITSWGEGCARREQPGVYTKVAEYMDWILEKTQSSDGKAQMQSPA
Protocol description: cell-based or functional assay
Hi! Could you send only the number? It should be in %, unit omitted.

Worked examples follow.
Binder	Result
M206-F01 (Fab, V domains shown, Tested as Fab; printed HC runs into CH1) VH: EVQLLESGGGLVQPGGSLRLSCAASGFTFSGYMMVWVRQAPGKGLEWVSRISPSGGPTIYADSVKGRFTISRDNSKNTLYLQMNSLRAEDTAVYYCARVARGIAARSRTSYFDYWGQGTLVTVSS VL: DIQMTQSPGTLSLSPGERATLSCRTSQFVNSNYLAWYQQTPGQAPRLLIYGASSRATGIPDRFSGTGYGTDFTLTISRLEPEDYGTYYCQQSSRTPWTFGQGTRVEIK	92.6
M210-B02 (Fab, V domains shown, Tested as Fab; printed HC runs into CH1; amber q written Q) VH: EVQLLESGGGLVQPGGSLRLSCAASGFTFSHYLMTWVRQAPGKGLEWVSYISPSGGHTIYADSVKGRFTISRDNSKNTLYLQMNSLRAEDTAVYYCASVARGIAARSRTSYFNQWGQGTLVTVSS VL: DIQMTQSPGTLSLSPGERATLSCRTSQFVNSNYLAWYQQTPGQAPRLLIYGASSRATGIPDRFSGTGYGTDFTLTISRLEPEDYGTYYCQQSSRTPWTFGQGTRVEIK	90.9

Asked: Entry under review: M205-D04 (Fab, V domains shown, Tested as Fab; printed HC runs into CH1; amber q written Q) VH: EVQLLESGGGLVQPGGSLRLSCAASGFTFSTYKMQWVRQAPGKGLEWVSSISPSGGPTNYADSVKGRFTISRDNSKNTLYLQMNSLRAEDTAVYYCARVARGIAARSRTSYFDYWGQGTLVTVSS VL: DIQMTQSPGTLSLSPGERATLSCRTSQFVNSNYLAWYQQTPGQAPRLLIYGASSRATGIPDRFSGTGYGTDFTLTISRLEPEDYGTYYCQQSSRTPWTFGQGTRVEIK . Reported % inhibition at 10 nM?
Given back: 91.5
